test: protein stability index of a GFP-peptide fusion (GPS, HEK-293T) (PSI 1-6); higher = more stable; settings: treatment: DMSO; c terminus: a fixed tail appended;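 also: 24-mer peptide tiles fused after GFP, lentivirally expressed, FACS-sorted into six equal bins by GFP/DsRed ratio, decoded by Illumina sequencing, PSI is the read-weighted mean bin number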

>  <item sequence>
GCMLIELALRGRLQLEACGMRRKS [GOLPH3]

>  <protein stability index>
1.83

$$$$
>  <item sequence>
KRSAPSGPVRSSSGMGGRAPVSRG [RBMX]

>  <protein stability index>
4.59

$$$$
>  <item sequence>
KVQFNLQFTKPNASLGDVQSGATI [SASS6]

>  <protein stability index>
2.45

$$$$
>  <item sequence>
ESLQELRLLLAGAEVQAKLENAEV [HES6]

>  <protein stability index>
2.84

$$$$
>  <item sequence>
GDPLNCHSYLSGYISLLLRAEPYP [NR2F2]

>  <protein stability index>
2.76

$$$$
>  <item sequence>
TGPAWNVLMWTMLFLGQGIQVSLY [SOAT2]

>  <protein stability index>
3.38

$$$$
>  <item sequence>
QYYRWLNYGGVIKNYFQHREFSFT [PRIM1]

>  <protein stability index>
2.34

$$$$
>  <item sequence>
TLEQILEHLDNLRLNLTNTKQNFF [INTS3]

>  <protein stability index>
2.23

$$$$
>  <item sequence>
REAFPSWSSRSPQERSRVLNQVAD [ALDH8A1]

>  <protein stability index>
4.2

$$$$
>  <item sequence>
FLYVTGHIKEILITAGGENVPPIP [ACSBG2]

>  <protein stability index>
2.78

$$$$
>  <item sequence>
HPFYHCLVAEVPKEHWTPEGHSIV [SAT1]

>  <protein stability index>
2.76

$$$$
>  <item sequence>
RVLKAYTLYRPEEGYCQAQAPIAA [TBC1D10A]

>  <protein stability index>
2.08

$$$$
>  <item sequence>
PNALIASLALGDLIYVVIDLPINV [EDNRA]

>  <protein stability index>
3.12

$$$$
>  <item sequence>
EYIDPETKKHIPYREHKSLTGTAR [CSNK1G1]

>  <protein stability index>
4.15

$$$$
>  <item sequence>
AANVVSAKRNRLAPAHVDEQVFLY [ZBED1]

>  <protein stability index>
2.55

$$$$
>  <item sequence>
KTVLMIAIQLLSRMEYVHSKNLIY [CSNK1G1]

>  <protein stability index>
3.04

$$$$
>  <item sequence>
YTVRAPVGVAGLISPWNLPLYLLT [ALDH8A1]

>  <protein stability index>
2.49

$$$$
>  <item sequence>
TPEEVIWEALNMMGLYDGMEHLIY [MAGEA10]

>  <protein stability index>
2.49

$$$$
>  <item sequence>
QDRFRIELSEEGAEGRVVGRKDIT [MOSPD3]

>  <protein stability index>
4.91

$$$$
>  <item sequence>
KDLILRFCIDSENRIGNSGVEEIK [STK38L]

>  <protein stability index>
2.47

$$$$
>  <item sequence>
IGDVHLAPFTDEQLYMEQFTKANF [CARM1]

>  <protein stability index>
3

$$$$
>  <item sequence>
CRLAKGENGYGFHLNAIRGLPGSF [PDZK1]

>  <protein stability index>
2.08

$$$$
>  <item sequence>
ENKQVVIIHHMRLQAKALQLIVTA [INTS4]

>  <protein stability index>
3.01

$$$$
>  <item sequence>
HNGDMEKILLDAQHESGQSSSRGS [BNIP3L]

>  <protein stability index>
5.18

$$$$
>  <item sequence>
TQQTGTVRFDGYVIDGATALWCAA [FEM1B]

>  <protein stability index>
2.3

$$$$
>  <item sequence>
GTTLVVGLLAGVGYFAFMLFRKRL [GDAP1]

>  <protein stability index>
2.41

$$$$
>  <item sequence>
MKKAKEQLKIRKSNQIPTEVRSKA [FUNDC2]

>  <protein stability index>
4.59

$$$$
